- target of assay: bovine serum albumin (BSA) glycation by glucose (Bos taurus, UniProt P02769)
- Construct: purchased Merck (Dorset, UK) and Oxoid (Hampshire, UK)
- Sequence (P02769 25-607): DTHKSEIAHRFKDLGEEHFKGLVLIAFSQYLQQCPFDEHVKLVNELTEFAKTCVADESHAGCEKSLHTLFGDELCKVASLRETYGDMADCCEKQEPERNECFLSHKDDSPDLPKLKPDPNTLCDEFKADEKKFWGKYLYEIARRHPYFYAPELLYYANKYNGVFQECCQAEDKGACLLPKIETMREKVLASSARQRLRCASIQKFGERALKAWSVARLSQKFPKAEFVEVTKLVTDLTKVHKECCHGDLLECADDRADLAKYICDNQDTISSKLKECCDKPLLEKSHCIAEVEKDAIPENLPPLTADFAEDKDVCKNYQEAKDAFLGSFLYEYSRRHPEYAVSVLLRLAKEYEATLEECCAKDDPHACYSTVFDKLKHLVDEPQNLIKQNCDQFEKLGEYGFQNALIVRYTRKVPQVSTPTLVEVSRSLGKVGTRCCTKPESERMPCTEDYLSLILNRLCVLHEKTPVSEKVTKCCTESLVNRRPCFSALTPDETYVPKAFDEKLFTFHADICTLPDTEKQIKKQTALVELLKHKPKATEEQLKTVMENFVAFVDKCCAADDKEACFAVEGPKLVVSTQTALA
- assay details: AGEs assay, non-oxidative (BSA-glucose assay)
- Format: biochemical
pIC50: −log10 of the molar value.
Listed here: items and their measured pIC50.
value type: pIC50

compound="O=c1cc(-c2ccc(O)cc2)oc2cc(O)cc(O)c12 [Apigenin, apigenin]" value_type=pIC50 measured_number=2.78
compound="C[C@@H]1O[C@@H](Oc2c(-c3ccc(O)c(O)c3)oc3cc(O)cc(O)c3c2=O)[C@H](O)[C@H](O)[C@H]1O [Quercitrin, quercitrin]" value_type=pIC50 measured_number=3.70
compound="C=CCc1ccc(O)c(OC)c1 [Eugenol, eugenol]" value_type=pIC50 measured_number=3.61
